Where do these numbers come from? They come from BigSolDB 2.1.

conditions: in methanol, 283.15 K
readout kind: solubility (mole fraction)

INSERT INTO results (structure, readout_kind, measured_number) VALUES
  ('CC(C)(C)OC(=O)N1CCC[C@H]1C(=O)O', 'solubility (mole fraction)', 0.115);

====

conditions: in acetonitrile, 293.15 K
readout kind: solubility (mole fraction)

INSERT INTO measurements (structure, measured_number) VALUES
  ('CC(C)(C)OC(=O)N1CCC[C@H]1C(=O)O', 0.0166);

====

conditions: in acetonitrile, 283.15 K
readout kind: solubility (mole fraction)

INSERT INTO measurements (structure, readout_kind, result) VALUES
  ('CC(C)(C)OC(=O)N1CCC[C@H]1C(=O)O', 'solubility (mole fraction)', 0.0113);

====

conditions: in n-propanol, 283.15 K
readout kind: solubility (mole fraction)

INSERT INTO measurements (structure, readout_kind, measured_number) VALUES
  ('CC(C)(C)OC(=O)N1CCC[C@H]1C(=O)O', 'solubility (mole fraction)', 0.0944);

====

conditions: in 2-butanone, 323.15 K
readout kind: solubility (mole fraction)

INSERT INTO measurements (structure, readout_kind, measured_number) VALUES
  ('CC(C)(C)OC(=O)N1CCC[C@H]1C(=O)O', 'solubility (mole fraction)', 0.125);

====

conditions: in isopropanol, 313.15 K
readout kind: solubility (mole fraction)

INSERT INTO measurements (structure, measured_number) VALUES
  ('CC(C)(C)OC(=O)N1CCC[C@H]1C(=O)O', 0.168);

====

conditions: in 2-butanone, 303.15 K
readout kind: solubility (mole fraction)

INSERT INTO assay_data (structure, measured_number) VALUES
  ('CC(C)(C)OC(=O)N1CCC[C@H]1C(=O)O', 0.0687);

====

conditions: in water, 283.15 K
readout kind: solubility (mole fraction)

INSERT INTO measurements (structure, measured_number) VALUES
  ('CC(C)(C)OC(=O)N1CCC[C@H]1C(=O)O', '6.6e-05');

====

conditions: in isopropanol, 303.15 K
readout kind: solubility (mole fraction)

INSERT INTO assay_data (structure, result) VALUES
  ('CC(C)(C)OC(=O)N1CCC[C@H]1C(=O)O', 0.134);

====

conditions: in n-butanol, 283.15 K
readout kind: solubility (mole fraction)

INSERT INTO results (structure, measured_number) VALUES
  ('CC(C)(C)OC(=O)N1CCC[C@H]1C(=O)O', 0.0889);

====

conditions: in n-propanol, 313.15 K
readout kind: solubility (mole fraction)

INSERT INTO assay_data (structure, measured_number) VALUES
  ('CC(C)(C)OC(=O)N1CCC[C@H]1C(=O)O', 0.16);

====

conditions: in ethyl acetate, 283.15 K
readout kind: solubility (mole fraction)

INSERT INTO results (structure, measured_number) VALUES
  ('CC(C)(C)OC(=O)N1CCC[C@H]1C(=O)O', 0.0217);

====

conditions: in sec-butanol, 313.15 K
readout kind: solubility (mole fraction)

INSERT INTO results (structure, measured_number) VALUES
  ('CC(C)(C)OC(=O)N1CCC[C@H]1C(=O)O', 0.193);

====

conditions: in ethanol, 313.15 K
readout kind: solubility (mole fraction)

INSERT INTO assay_data (structure, readout_kind, measured_number) VALUES
  ('CC(C)(C)OC(=O)N1CCC[C@H]1C(=O)O', 'solubility (mole fraction)', 0.172);

====

conditions: in acetonitrile, 313.15 K
readout kind: solubility (mole fraction)

INSERT INTO measurements (structure, readout_kind, result) VALUES
  ('CC(C)(C)OC(=O)N1CCC[C@H]1C(=O)O', 'solubility (mole fraction)', 0.0379);

====

conditions: in dichloromethane, 288.15 K
readout kind: solubility (mole fraction)

INSERT INTO measurements (structure, measured_number) VALUES
  ('CC(C)(C)OC(=O)N1CCC[C@H]1C(=O)O', 0.098);

====

conditions: in acetone, 303.15 K
readout kind: solubility (mole fraction)

INSERT INTO assay_data (structure, measured_number) VALUES
  ('CC(C)(C)OC(=O)N1CCC[C@H]1C(=O)O', 0.075);

====

conditions: in isobutanol, 283.15 K
readout kind: solubility (mole fraction)

INSERT INTO measurements (structure, measured_number) VALUES
  ('CC(C)(C)OC(=O)N1CCC[C@H]1C(=O)O', 0.072);

====

conditions: in ethanol, 283.15 K
readout kind: solubility (mole fraction)

INSERT INTO measurements (structure, readout_kind, measured_number) VALUES
  ('CC(C)(C)OC(=O)N1CCC[C@H]1C(=O)O', 'solubility (mole fraction)', 0.0968);

====

conditions: in dichloromethane, 303.15 K
readout kind: solubility (mole fraction)

INSERT INTO assay_data (structure, readout_kind, measured_number) VALUES
  ('CC(C)(C)OC(=O)N1CCC[C@H]1C(=O)O', 'solubility (mole fraction)', 0.125);

====

conditions: in sec-butanol, 293.15 K
readout kind: solubility (mole fraction)

INSERT INTO measurements (structure, readout_kind, measured_number) VALUES
  ('CC(C)(C)OC(=O)N1CCC[C@H]1C(=O)O', 'solubility (mole fraction)', 0.127);

====

conditions: in methanol, 313.15 K
readout kind: solubility (mole fraction)

INSERT INTO results (structure, measured_number) VALUES
  ('CC(C)(C)OC(=O)N1CCC[C@H]1C(=O)O', 0.24);

====

conditions: in methanol, 303.15 K
readout kind: solubility (mole fraction)

INSERT INTO assay_data (structure, measured_number) VALUES
  ('CC(C)(C)OC(=O)N1CCC[C@H]1C(=O)O', 0.196);

====

conditions: in methyl acetate, 303.15 K
readout kind: solubility (mole fraction)

INSERT INTO assay_data (structure, readout_kind, measured_number) VALUES
  ('CC(C)(C)OC(=O)N1CCC[C@H]1C(=O)O', 'solubility (mole fraction)', 0.0436);

====

conditions: in ethanol, 323.15 K
readout kind: solubility (mole fraction)

INSERT INTO results (structure, measured_number) VALUES
  ('CC(C)(C)OC(=O)N1CCC[C@H]1C(=O)O', 0.215);

====

conditions: in 2-butanone, 293.15 K
readout kind: solubility (mole fraction)

INSERT INTO results (structure, result) VALUES
  ('CC(C)(C)OC(=O)N1CCC[C@H]1C(=O)O', 0.0532);
